- ASSAY EXPLANATION: Vorinostat serum pharmacokinetics
- Format: in vivo, human
- CONDITION PARAMETERS: human, oral, 100 mg, Mean Cmax (SD), Sequential schedule, 100 mg bid days 6–21 (n = 4), day 9 of cycle 1

| COMPOUND | Cmax |
| --- | --- |
| O=C(CCCCCCC(=O)Nc1ccccc1)NO [vorinostat, suberoylanilide hydroxamic acid] | 117 ng/mL |

----------
- ASSAY EXPLANATION: Decitabine plasma pharmacokinetics
- Assay type: in vivo, human
- CONDITION PARAMETERS: human, iv, 20 mg/m^2/day
MEASURED METRIC: half-life

| MOLECULE | MEASURED METRIC | VALUE REPORTED |
| --- | --- | --- |
| Nc1ncn([C@H]2C[C@H](O)[C@@H](CO)O2)c(=O)n1 [decitabine, 5-aza-2’-deoxycytidine] | half-life | ~20 min |

----------
- ASSAY EXPLANATION: Decitabine plasma pharmacokinetics
- Type: in vivo, human
- CONDITION PARAMETERS: human, intravenous, 20 mg/m^2/day, Mean AUCinf (SD), Concurrent schedule: decitabine 20 mg/m^2/day (n = 6), Day 5, cycle 1

| MOLECULE | AUC(0-inf), ng·h/mL |
| --- | --- |
| Nc1ncn([C@H]2C[C@H](O)[C@@H](CO)O2)c(=O)n1 [decitabine, 5-aza-2’-deoxycytidine] | 170 |

----------
- ASSAY EXPLANATION: Vorinostat serum pharmacokinetics
- Type: in vivo, human
- CONDITION PARAMETERS: human, oral, 200 mg, Mean t½ (SD), Concurrent schedule, 200 mg tid days 1–14, Day 4 (n = 7)

| COMPOUND | UNITS LABEL | half-life |
| --- | --- | --- |
| O=C(CCCCCCC(=O)Nc1ccccc1)NO [vorinostat, suberoylanilide hydroxamic acid] | h | 2.68 |

----------
- ASSAY EXPLANATION: Vorinostat serum pharmacokinetics
- Type: in vivo, human
- CONDITION PARAMETERS: human, oral, 200 mg, Mean t½ (SD), Sequential schedule, 200 mg bid days 6–21 (n = 4), day 9 of cycle 1
MEASURED METRIC: half-life (h)

| COMPOUND | MEASURED METRIC | VALUE REPORTED |
| --- | --- | --- |
| O=C(CCCCCCC(=O)Nc1ccccc1)NO [vorinostat, suberoylanilide hydroxamic acid] | half-life | 3.34 |

----------
- ASSAY EXPLANATION: Vorinostat serum pharmacokinetics
- Type: in vivo, human
- CONDITION PARAMETERS: human, oral, 200 mg, Mean Cmax (SD), Sequential schedule, 200 mg bid days 6–21 (n = 4), day 9 of cycle 1
MEASURED METRIC: Cmax (ng/mL)

| COMPOUND | MEASURED METRIC | UNITS LABEL | VALUE REPORTED |
| --- | --- | --- | --- |
| O=C(CCCCCCC(=O)Nc1ccccc1)NO [vorinostat, suberoylanilide hydroxamic acid] | Cmax | ng/mL | 126 |

----------
- ASSAY EXPLANATION: Vorinostat serum pharmacokinetics
- Format: in vivo, human
- CONDITION PARAMETERS: human, oral, 200 mg, Mean AUCinf (SD), Concurrent schedule, 200 mg tid days 1–14, Day 4 (n = 7)

| COMPOUND | UNITS LABEL | AUC(0-inf) |
| --- | --- | --- |
| O=C(CCCCCCC(=O)Nc1ccccc1)NO [vorinostat, suberoylanilide hydroxamic acid] | ng·h/mL | 1240 |
